These data points were gathered from patent US8415359B2.

assay_target: human pancreatic GK (human glucokinase variant 1, GST-fused protein) (Homo sapiens, UniProt P35557)
Construct: made in house; host or cells: Escherichia coli (such as BL21 or JM109)
protocol_summary: GK activity test (GK activation rate)
Assay type: biochemical
stated_conditions: test compound 1 μM; glucose 5 mM; 30 min at room temperature; absorbance at 340 nm with test compound / without test compound
Criterion: GK Activation Rate meeting or surpassing 2. Met: true (1). Not met: false (0).

Answered examples (3):
COC[C@H](C)Oc1cc(Oc2cnc(C(=O)N3CCN(C)CC3)cn2)cc(-c2ccc(-c3nccs3)[nH]2)c1: false (0)
C[C@@H](CO)Oc1cc(Oc2ccc(S(C)(=O)=O)cc2)cc(-c2ccc(-c3nccs3)[nH]2)c1: false (0)
C[C@@H]1COC(c2ccc(-c3cc(Oc4ccc(S(C)(=O)=O)nc4)cc(O[C@@H](C)CO)c3)[nH]2)=N1: true (1)

Task: # bool: GK Activation Rate of COC[C@H](C)Oc1cc(Oc2ccc(S(C)(=O)=O)nc2)cc(-c2ccc(C3=N[C@H](CO)CO3)[nH]2)c1 >= 2
Result: true (1)

Task: # bool: GK Activation Rate of COC[C@H](C)Oc1cc(Oc2ccc(S(C)(=O)=O)nc2)cc(-c2ccc(C3=NC[C@H](CO)O3)[nH]2)c1 >= 2
Result: true (1)

Task: # bool: GK Activation Rate of COC[C@H](C)Oc1cc(Oc2ccc(S(C)(=O)=O)nc2)cc(-c2ccc(C3=NC[C@H](C)O3)[nH]2)c1 >= 2
Result: true (1)

----------
# Lookup of reported GK Activation Rate keyed by entry
assay_target: human pancreatic GK (human glucokinase variant 1, GST-fused protein) (Homo sapiens)
Construct: made in house; host or cells: Escherichia coli (such as BL21 or JM109)
Sequence (P35557 1-465): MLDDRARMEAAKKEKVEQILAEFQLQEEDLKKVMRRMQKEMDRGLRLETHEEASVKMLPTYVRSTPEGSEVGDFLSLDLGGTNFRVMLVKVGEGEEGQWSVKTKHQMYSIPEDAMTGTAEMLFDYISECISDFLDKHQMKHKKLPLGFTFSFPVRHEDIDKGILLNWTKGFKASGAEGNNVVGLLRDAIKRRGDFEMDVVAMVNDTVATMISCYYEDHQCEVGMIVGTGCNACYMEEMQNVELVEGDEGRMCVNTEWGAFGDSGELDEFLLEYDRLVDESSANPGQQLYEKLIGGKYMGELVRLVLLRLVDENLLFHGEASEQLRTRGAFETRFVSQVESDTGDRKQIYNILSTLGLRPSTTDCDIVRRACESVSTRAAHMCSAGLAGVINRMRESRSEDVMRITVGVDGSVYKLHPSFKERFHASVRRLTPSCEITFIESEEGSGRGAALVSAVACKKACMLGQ
protocol_summary: GK activity test (GK activation rate)
Assay type: biochemical
stated_conditions: test compound 1 μM; glucose 5 mM; 30 min at room temperature; absorbance at 340 nm with test compound / without test compound
Kindly provide the number alone.

CNS(=O)(=O)c1ccc(Oc2cc(O[C@@H](C)COC)cc(-c3ccc(C4=NC[C@H](CO)O4)[nH]3)c2)cn1 [Example 127]: 2.4
Cc1nnc(-c2ccc(-c3cc(Oc4ccc(S(C)(=O)=O)nc4)cc(O[C@@H](C)CO)c3)[nH]2)o1 [Example 81]: 2.2
COC[C@H](C)Oc1cc(Oc2ccc(S(C)(=O)=O)cc2)cc(-c2ccc(C3=NC[C@H](C)O3)[nH]2)c1 [Example 31]: 2.0

Task: For the compound COC[C@H](C)Oc1cc(Oc2cnc(S(C)(=O)=O)cn2)cc(-c2ccc(C3=N[C@H]([C@@H](C)O)CO3)[nH]2)c1 [Example 114] , give its measured GK Activation Rate value.
Result: 2.2

Task: For the compound CNC(=O)c1ccc(Oc2cc(O[C@@H](C)COC)cc(-c3ccc(C4=NC[C@H](CO)O4)[nH]3)c2)cn1 [Example 126] , give its measured GK Activation Rate value.
Result: 2.6

Task: For the compound COC[C@H](C)Oc1cc(Oc2ccc(S(C)(=O)=O)nc2)cc(-c2ccc(-c3nccs3)[nH]2)c1 [Example 65] , give its measured GK Activation Rate value.
Result: 2.4

----------
assay_target: human pancreatic GK (human glucokinase variant 1, GST-fused protein) (Homo sapiens, UniProt P35557)
Construct: made in house; host or cells: Escherichia coli (such as BL21 or JM109)
protocol_summary: GK activity test (GK activation rate)
Assay type: biochemical
stated_conditions: test compound 1 μM; glucose 5 mM; 30 min at room temperature; absorbance at 340 nm with test compound / without test compound
# Lookup of reported GK Activation Rate keyed by entry
Kindly provide the number alone.

Cc1nnc(-c2ccc(-c3cc(Oc4ccc(C(=O)N5CCC5)cc4F)cc(O[C@@H](C)CO)c3)[nH]2)o1: 1.7

Task: For the molecule C[C@@H]1COC(c2ccc(-c3cc(Oc4cnc(S(C)(=O)=O)cn4)cc(O[C@@H](C)CO)c3)[nH]2)=N1 , give its measured GK Activation Rate value.
Result: 2.0

Task: For the molecule COC[C@H](C)Oc1cc(Oc2ccc(S(C)(=O)=O)cc2)cc(-c2ccc(C3=NCCS3)[nH]2)c1 , give its measured GK Activation Rate value.
Result: 2.0

Task: For the molecule CNC(=O)c1ccc(Oc2cc(O[C@@H](C)CO)cc(-c3ccc(C4=NC[C@H](C)O4)[nH]3)c2)cn1 , give its measured GK Activation Rate value.
Result: 2.6

Task: For the molecule COC[C@H](C)Oc1cc(Oc2ncc(C(=O)N3CCC3)cc2Cl)cc(-c2ccc(-c3nccs3)[nH]2)c1 , give its measured GK Activation Rate value.
Result: 2.0

----------
# Lookup of reported GK Activation Rate keyed by entry
assay_target: human pancreatic GK (human glucokinase variant 1, GST-fused protein) (Homo sapiens, UniProt P35557)
Construct: made in house; host or cells: Escherichia coli (such as BL21 or JM109)
protocol_summary: GK activity test (GK activation rate)
Assay type: biochemical
stated_conditions: test compound 1 μM; glucose 5 mM; 30 min at room temperature; absorbance at 340 nm with test compound / without test compound
Kindly provide the number alone.

// worked examples, GK Activation Rate included
COC[C@H](C)Oc1cc(Oc2ccc(S(C)(=O)=O)nc2)cc(-c2ccc(C3=N[C@H](C)[C@H](CO)O3)[nH]2)c1 [Example 89]: 2.3
CC[C@@H]1COC(c2ccc(-c3cc(Oc4ccc(S(C)(=O)=O)nc4)cc(O[C@@H](C)CO)c3)[nH]2)=N1 [Example 85]: 2.9
C[C@H]1CN=C(c2ccc(-c3cc(Oc4ccc(S(C)(=O)=O)cc4)cc(O[C@@H](C)CO)c3)[nH]2)O1 [Example 32]: 2.0

Turning to the following compound.
Task: For the compound COC[C@H](C)Oc1cc(Oc2ccc(C(=O)N3CCC3)cc2F)cc(-c2ccc(C3=NCCO3)[nH]2)c1 [Example 68] , give its measured GK Activation Rate value.
Result: 2.0

----------
# Lookup of reported GK Activation Rate keyed by entry
assay_target: human pancreatic GK (human glucokinase variant 1, GST-fused protein) (Homo sapiens)
Construct: made in house; host or cells: Escherichia coli (such as BL21 or JM109)
Sequence (P35557 1-465): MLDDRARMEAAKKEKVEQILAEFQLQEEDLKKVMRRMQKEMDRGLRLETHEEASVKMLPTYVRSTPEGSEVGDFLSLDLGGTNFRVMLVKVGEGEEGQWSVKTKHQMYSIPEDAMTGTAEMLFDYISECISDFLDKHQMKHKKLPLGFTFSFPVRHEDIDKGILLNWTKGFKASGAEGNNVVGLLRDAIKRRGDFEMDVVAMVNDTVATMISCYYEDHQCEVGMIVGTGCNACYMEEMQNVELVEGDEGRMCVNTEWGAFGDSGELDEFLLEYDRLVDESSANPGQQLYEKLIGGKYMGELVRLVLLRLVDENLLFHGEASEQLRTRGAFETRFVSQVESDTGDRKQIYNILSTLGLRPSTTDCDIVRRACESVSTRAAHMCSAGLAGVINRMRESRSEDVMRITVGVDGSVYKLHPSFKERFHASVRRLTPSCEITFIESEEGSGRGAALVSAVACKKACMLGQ
protocol_summary: GK activity test (GK activation rate)
Assay type: biochemical
stated_conditions: test compound 1 μM; glucose 5 mM; 30 min at room temperature; absorbance at 340 nm with test compound / without test compound
Kindly provide the number alone.

// worked examples, GK Activation Rate included
COC[C@H](C)Oc1cc(Oc2ccc(S(C)(=O)=O)cc2)cc(-c2ccc(-c3nccs3)[nH]2)c1: 2.0
COC[C@H](C)Oc1cc(Oc2cnc(S(C)(=O)=O)cn2)cc(-c2ccc(C3=NC[C@H](CO)O3)[nH]2)c1: 1.9
COC[C@H](C)Oc1cc(Oc2ccc(S(C)(=O)=O)nc2)cc(-c2ccc(C3=N[C@H]([C@H](C)O)CO3)[nH]2)c1: 2.4
COC[C@H](C)Oc1cc(Oc2ccc(S(C)(=O)=O)cc2)cc(-c2ccc(-c3ncc(C)s3)[nH]2)c1: 1.9

Task: For the compound COC[C@H](C)Oc1cc(Oc2cnc(S(C)(=O)=O)cn2)cc(-c2ccc(C3=NC(O)[C@H](C)O3)[nH]2)c1 (some centres unmarked) , give its measured GK Activation Rate value.
Result: 2.1
